Provenance of the data: the supplement of paper PMC10567573

B1: FCHSD1 (parent)
chain: LEAAEVILEHAHRGEQTTSQVSWE

# Variants of: B1
# assayName: protein stability index of a GFP-peptide fusion (GPS, HEK-293T) (PSI 1-6); higher = more stable;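 further: lentivirally expressed fusions sorted by FACS into six bins by GFP to DsRed ratio, PSI derived from sequencing read proportions per bin multiplied by bin number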
# details: c terminus: a fixed tail appended
Each entry below lists one item and its recorded protein stability index value.

>  <chain>
LEAAEVILEHAHRGEQTTYQVSWE [S19Y]

>  <value>
2.64

$$$$
>  <chain>
LEAAEVILESAHRGEQTTSQVSWE [H10S]

>  <value>
4.41

$$$$
>  <chain>
LEAAEVILEHAHRGEQTTSQRSWE [V21R]

>  <value>
4.18

$$$$
>  <chain>
LEAAEVILEHAHGGEQTTSQVSWE [R13G]

>  <value>
5.25

$$$$
>  <chain>
LEAAEVILEHAHRGEQTTSQVTWE [S22T]

>  <value>
3.8

$$$$

Query string: Endpoint output: protein stability index of LEAAEVLLEHAHRGEQTTSQVSWE [I7L] . Value?
Result string: 4.99
